B1: OR4K15 (parent)
chain: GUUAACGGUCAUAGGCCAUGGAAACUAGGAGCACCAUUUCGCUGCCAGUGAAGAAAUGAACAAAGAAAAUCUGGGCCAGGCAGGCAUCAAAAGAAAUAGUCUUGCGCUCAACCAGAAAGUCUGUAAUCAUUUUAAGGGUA

Variants of: B1
assay.overview: self-cleavage, relative activity (ratio to wild type); higher = more cleavage; in vitro, sequencing; the parent is a self-cleaving ribozyme
Each entry below carries its recorded self-cleavage.

U19C A67G	1.04
C61G	1.24
G14U A63G	1.14
C32A C128A	0.81
U70A U131C	0.7

Recorded self-cleavage for A30G U39C , please?
1.05

Recorded self-cleavage for A18G A126G , please?
0.8

Recorded self-cleavage for G29C U108A , please?
0.02

Recorded self-cleavage for A64U A92G , please?
1.11

Recorded self-cleavage for A78G U102C , please?
0.31

Reference source for all entries: the RNAGym collection of RNA variant scans (doi:10.7554/elife.90254)
